Assayed Target: UniProt:P35968
Sequence (P35968 whole entry): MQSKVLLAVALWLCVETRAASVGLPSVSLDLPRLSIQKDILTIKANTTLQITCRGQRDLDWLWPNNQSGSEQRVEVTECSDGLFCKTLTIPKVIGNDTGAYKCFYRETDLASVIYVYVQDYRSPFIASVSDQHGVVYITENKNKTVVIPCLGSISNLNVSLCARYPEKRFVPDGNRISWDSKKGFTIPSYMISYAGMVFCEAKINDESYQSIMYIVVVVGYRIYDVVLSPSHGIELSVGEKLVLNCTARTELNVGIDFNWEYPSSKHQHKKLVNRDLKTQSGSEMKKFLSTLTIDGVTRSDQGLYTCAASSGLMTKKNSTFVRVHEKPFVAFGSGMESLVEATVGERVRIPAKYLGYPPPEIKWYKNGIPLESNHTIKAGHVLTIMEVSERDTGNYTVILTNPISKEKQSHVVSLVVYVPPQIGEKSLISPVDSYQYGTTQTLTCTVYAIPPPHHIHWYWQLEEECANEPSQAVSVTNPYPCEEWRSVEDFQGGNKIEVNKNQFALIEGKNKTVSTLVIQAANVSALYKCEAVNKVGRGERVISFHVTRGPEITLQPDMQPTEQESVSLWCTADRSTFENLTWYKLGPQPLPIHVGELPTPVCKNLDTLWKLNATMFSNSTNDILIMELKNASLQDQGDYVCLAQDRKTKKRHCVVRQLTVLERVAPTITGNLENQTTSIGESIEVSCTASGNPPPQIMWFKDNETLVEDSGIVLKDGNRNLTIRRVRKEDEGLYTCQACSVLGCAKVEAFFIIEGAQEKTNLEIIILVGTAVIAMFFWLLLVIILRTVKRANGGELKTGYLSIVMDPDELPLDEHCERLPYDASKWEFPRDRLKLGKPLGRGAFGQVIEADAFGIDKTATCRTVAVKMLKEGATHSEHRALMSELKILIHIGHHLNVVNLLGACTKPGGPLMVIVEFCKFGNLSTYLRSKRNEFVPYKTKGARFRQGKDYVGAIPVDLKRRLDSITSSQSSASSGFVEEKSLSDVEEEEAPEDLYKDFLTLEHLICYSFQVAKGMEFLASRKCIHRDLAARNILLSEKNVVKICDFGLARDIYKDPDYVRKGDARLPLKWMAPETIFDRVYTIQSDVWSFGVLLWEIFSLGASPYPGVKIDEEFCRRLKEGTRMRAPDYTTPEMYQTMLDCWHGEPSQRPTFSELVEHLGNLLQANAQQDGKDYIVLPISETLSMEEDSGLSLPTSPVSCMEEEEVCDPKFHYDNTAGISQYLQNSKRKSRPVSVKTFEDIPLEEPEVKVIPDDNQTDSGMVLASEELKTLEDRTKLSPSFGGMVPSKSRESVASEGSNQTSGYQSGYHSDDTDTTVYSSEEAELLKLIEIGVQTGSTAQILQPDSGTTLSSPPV
Assay type: functional
Endpoint: AC50 (µM)
The response must be a number in µM with no trailing unit.

For FC(F)(F)c1ccc(CNc2ccc(Cc3c[nH]c4ncc(Cl)cc34)cn2)cn1 [PEXIDARTINIB] , what is its reported AC50? 0.131

For O=C(O)c1cc(/N=N/c2ccc(O)c(C(=O)O)c2)ccc1O [OLSALAZINE] , what is its reported AC50? 12.3

For Cc1cc(NC(=O)C2=C(O)c3ccccc3S(=O)(=O)N2C)no1 [ISOXICAM] , what is its reported AC50? 24.4

For Nc1ccc(C(=O)Oc2ccccc2)c(O)c1 [PHENYL AMINOSALICYLATE] , what is its reported AC50? 23.2

----------
Assayed Target: Melanocortin receptor 3 (Homo sapiens); note: assay procedure not described here
Sequence (P41968 whole entry): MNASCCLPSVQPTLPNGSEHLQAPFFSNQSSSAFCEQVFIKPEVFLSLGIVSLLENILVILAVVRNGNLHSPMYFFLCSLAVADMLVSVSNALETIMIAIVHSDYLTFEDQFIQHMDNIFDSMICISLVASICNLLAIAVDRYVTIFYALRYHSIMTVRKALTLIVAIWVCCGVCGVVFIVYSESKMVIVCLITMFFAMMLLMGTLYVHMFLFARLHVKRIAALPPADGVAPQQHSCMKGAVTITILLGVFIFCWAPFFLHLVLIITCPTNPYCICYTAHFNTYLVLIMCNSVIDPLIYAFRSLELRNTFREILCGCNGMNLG
Endpoint: AC50

For C=C[C@H]1C[N@@]2CC[C@H]1C[C@@H]2[C@@H](O)c1ccnc2ccc(OC)cc12 [QUINIDINE] , what is its reported AC50? > 30 µM

For NC1CCN(c2nc3c(cc2F)c(=O)c(C(=O)O)cn3-c2ccc(F)cc2F)C1 (centres undefined) [TOSUFLOXACIN] , what is its reported AC50? > 30 µM

For C=C1/C(=C\C=C2/CCC[C@]3(C)[C@@H]([C@H](C)/C=C/[C@@H](O)C4CC4)CC[C@@H]23)C[C@@H](O)C[C@@H]1O [CALCIPOTRIENE] , what is its reported AC50? > 30 µM

For CN(C(=O)c1c(O)c2ccccc2n(C)c1=O)c1ccccc1 [ROQUINIMEX] , what is its reported AC50? > 30 µM

For Cc1cnc(C(=O)NCCc2ccc(S(=O)(=O)NC(=O)NC3CCCCC3)cc2)cn1 [GLIPIZIDE] , what is its reported AC50? > 30 µM

For CO[C@H]1/C=C/O[C@@]2(C)Oc3c(C)c(O)c4c(O)c(c(/C=N/N5CCN(C)CC5)c(O)c4c3C2=O)NC(=O)/C(C)=C\C=C\[C@H](C)[C@H](O)[C@@H](C)[C@@H](O)[C@@H](C)[C@H](OC(C)=O)[C@@H]1C [RIFAMPIN] , what is its reported AC50? > 30 µM

For CCCCC1C(=O)N(c2ccccc2)N(c2ccccc2)C1=O [PHENYLBUTAZONE] , what is its reported AC50? > 30 µM

For CNC1=Nc2ccc(Cl)cc2C(c2ccccc2)=[N+]([O-])C1 [CHLORDIAZEPOXIDE] , what is its reported AC50? > 30 µM

For CC1=C(C)C(=O)C(C(CCCCCC(=O)O)c2ccccc2)=C(C)C1=O (centres undefined) [SERATRODAST] , what is its reported AC50? > 30 µM

For Cc1cccc(N2CC(CO)OC2=O)c1 (centres undefined) [TOLOXATONE] , what is its reported AC50? > 30 µM

For CC(CCc1ccc(O)cc1)NCCc1ccc(O)c(O)c1 (centres undefined) [DOBUTAMINE] , what is its reported AC50? > 30 µM

For Nc1ccc(S(=O)(=O)Nc2nccs2)cc1 [SULFATHIAZOLE] , what is its reported AC50? > 30 µM

For CC(C)[C@H](N)C(=O)OCC(CO)OCn1cnc2c(=O)nc(N)[nH]c21 (some centres undefined) [VALGANCICLOVIR] , what is its reported AC50? > 30 µM

For CC(C(=O)O)c1ccc(-c2ccccc2)c(F)c1 (centres undefined) [FLURBIPROFEN] , what is its reported AC50? > 10 µM

----------
Assayed Target: UniProt:P11229
Sequence (P11229 whole entry): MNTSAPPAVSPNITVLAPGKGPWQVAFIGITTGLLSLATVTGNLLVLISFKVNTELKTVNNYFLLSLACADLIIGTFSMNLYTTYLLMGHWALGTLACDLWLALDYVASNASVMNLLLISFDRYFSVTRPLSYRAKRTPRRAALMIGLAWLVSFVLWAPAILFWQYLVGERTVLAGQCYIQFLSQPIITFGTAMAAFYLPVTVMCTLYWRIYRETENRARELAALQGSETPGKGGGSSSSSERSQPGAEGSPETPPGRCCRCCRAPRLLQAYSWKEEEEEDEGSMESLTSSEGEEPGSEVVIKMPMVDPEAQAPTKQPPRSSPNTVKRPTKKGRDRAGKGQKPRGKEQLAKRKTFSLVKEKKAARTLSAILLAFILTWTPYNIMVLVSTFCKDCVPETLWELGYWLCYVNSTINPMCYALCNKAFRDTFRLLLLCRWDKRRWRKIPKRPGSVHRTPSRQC
Assay type: functional, cell-based
Please go through the items and note down their AC50.

For CN1CCCCC1CCN1c2ccccc2Sc2ccc([S+](C)[O-])cc21 (stereo not drawn) [MESORIDAZINE] , what is its reported AC50? > 30 µM

For N[C@@H](CS)C(=O)O [CYSTEINE] , what is its reported AC50? > 30 µM

For CC[C@H]1OC(=O)[C@H](C)C(=O)[C@H](C)[C@@H](O[C@@H]2O[C@H](C)C[C@H](N(C)C)[C@H]2O)[C@](C)(OC)C[C@@H](C)C(=O)[C@H](C)[C@H]2N(CCCCn3cnc(-c4cccnc4)c3)C(=O)O[C@]12C [TELITHROMYCIN] , what is its reported AC50? > 30 µM

For O=C(O)c1cc(/N=N/c2ccc(O)c(C(=O)O)c2)ccc1O [OLSALAZINE] , what is its reported AC50? > 30 µM

For CCOC(=O)C1=C[C@@H](OC(CC)CC)[C@H](NC(C)=O)[C@@H](N)C1 [OSELTAMIVIR] , what is its reported AC50? > 30 µM

For Cc1cc(N)c2ccccc2[n+]1CCCCCCCCCC[n+]1c(C)cc(N)c2ccccc21 , what is its reported AC50? 0.611 µM

For CCN(CC)C(=S)S [DITIOCARB] , what is its reported AC50? > 1 µM

For N#Cc1ccc2c(c1)N(CCCN1CCC(O)CC1)c1ccccc1S2 [PERICIAZINE] , what is its reported AC50? 5.58 µM

----------
Assayed Target: 5-hydroxytryptamine receptor 1A (Homo sapiens, UniProt P08908); note: assay procedure not described here
Sequence (P08908 whole entry): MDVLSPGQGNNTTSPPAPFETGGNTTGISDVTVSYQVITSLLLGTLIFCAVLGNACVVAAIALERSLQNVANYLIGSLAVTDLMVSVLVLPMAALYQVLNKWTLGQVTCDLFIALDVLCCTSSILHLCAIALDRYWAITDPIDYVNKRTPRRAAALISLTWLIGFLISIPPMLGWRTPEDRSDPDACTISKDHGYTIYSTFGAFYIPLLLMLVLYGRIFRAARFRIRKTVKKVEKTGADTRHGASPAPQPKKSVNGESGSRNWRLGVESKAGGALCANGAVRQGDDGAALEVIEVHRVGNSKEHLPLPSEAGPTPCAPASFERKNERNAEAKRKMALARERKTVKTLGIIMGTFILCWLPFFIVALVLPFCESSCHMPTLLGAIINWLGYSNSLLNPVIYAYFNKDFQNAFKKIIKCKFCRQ
Format: functional, cell-based
Please go through the items and note down their AC50.

For CC1(C)S[C@@H]2[C@H](NC(=O)[C@H](N)c3ccccc3)C(=O)N2[C@H]1C(=O)OCOC(=O)[C@@H]1N2C(=O)C[C@H]2S(=O)(=O)C1(C)C , what is its reported AC50? > 30 µM

For C=CC[C@@H]1/C=C(\C)C[C@H](C)C[C@H](OC)[C@H]2O[C@@](O)(C(=O)C(=O)N3CCCC[C@H]3C(=O)O[C@H](/C(C)=C/[C@@H]3CC[C@@H](O)[C@H](OC)C3)[C@H](C)[C@@H](O)CC1=O)[C@H](C)C[C@@H]2OC [TACROLIMUS ANHYDROUS] , what is its reported AC50? > 10 µM

For CCC(COC(=O)c1cc(OC)c(OC)c(OC)c1)(c1ccccc1)N(C)C (stereo unspecified) , what is its reported AC50? > 30 µM

For CC(C(=O)O)c1ccc(-c2ccccc2)c(F)c1 (stereo unspecified) , what is its reported AC50? > 10 µM

For CCC(C)C1(CC)C(=O)NC(=O)NC1=O (stereo unspecified) , what is its reported AC50? > 30 µM

For C[C@]12C=CC(=O)N[C@@H]1CC[C@@H]1[C@@H]2CC[C@]2(C)[C@@H](C(=O)Nc3cc(C(F)(F)F)ccc3C(F)(F)F)CC[C@@H]12 [DUTASTERIDE] , what is its reported AC50? > 10 µM

----------
Here's what we have: AC50 numbers for Alpha-1A adrenergic receptor (Homo sapiens).

For C#C[C@]1(O)CC[C@H]2[C@@H]3CCC4=CC(=O)CC[C@@H]4[C@H]3C(=C)C[C@@]21CC , what is its reported AC50? > 30 µM

For CC[C@@]1(O)C(=O)OCc2c1cc1n(c2=O)Cc2cc3c([N+](=O)[O-])cccc3nc2-1 , what is its reported AC50? > 30 µM

For CC(C)(O)CNc1nc(Nc2ccnc(C(F)(F)F)c2)nc(-c2cccc(C(F)(F)F)n2)n1 , what is its reported AC50? > 30 µM

For C=C1CC[C@H](O)C/C1=C/C=C1\CCC[C@]2(C)[C@@H]([C@H](C)/C=C/[C@H](C)C(C)C)CC[C@@H]12 , what is its reported AC50? 24.7 µM

For OC[C@H]1O[C@@](CO)(O[C@H]2O[C@H](CO)[C@@H](O)[C@H](O)[C@H]2O)[C@@H](O)[C@@H]1O , what is its reported AC50? > 30 µM

For O=[N+]([O-])c1ccc(O)c2ncccc12 , what is its reported AC50? > 30 µM

For FC(F)(F)c1ccc(CNc2ccc(Cc3c[nH]c4ncc(Cl)cc34)cn2)cn1 , what is its reported AC50? 1.31 µM

For O=C(O)CO , what is its reported AC50? > 30 µM

For CN1C(C(=O)Nc2ccccn2)=C(O)c2ccccc2S1(=O)=O , what is its reported AC50? > 30 µM

For CN(CC1(C)CCCO1)S(=O)(=O)c1ccc(Cl)c(S(N)(=O)=O)c1 (configuration not stated) [MEFRUSIDE] , what is its reported AC50? > 30 µM

For OC[C@@H](O)[C@@H](O)[C@H](O)[C@@H](O)CO , what is its reported AC50? > 30 µM

For CCOC(=O)c1c(C)cc2c(CO)n[nH]c(=O)c2c1C [OXAGRELATE] , what is its reported AC50? > 30 µM

----------
Assayed Target: Voltage-dependent L-type calcium channel subunit alpha-1C (Rattus norvegicus, UniProt P22002); note: assay procedure not described here
Sequence (P22002 whole entry): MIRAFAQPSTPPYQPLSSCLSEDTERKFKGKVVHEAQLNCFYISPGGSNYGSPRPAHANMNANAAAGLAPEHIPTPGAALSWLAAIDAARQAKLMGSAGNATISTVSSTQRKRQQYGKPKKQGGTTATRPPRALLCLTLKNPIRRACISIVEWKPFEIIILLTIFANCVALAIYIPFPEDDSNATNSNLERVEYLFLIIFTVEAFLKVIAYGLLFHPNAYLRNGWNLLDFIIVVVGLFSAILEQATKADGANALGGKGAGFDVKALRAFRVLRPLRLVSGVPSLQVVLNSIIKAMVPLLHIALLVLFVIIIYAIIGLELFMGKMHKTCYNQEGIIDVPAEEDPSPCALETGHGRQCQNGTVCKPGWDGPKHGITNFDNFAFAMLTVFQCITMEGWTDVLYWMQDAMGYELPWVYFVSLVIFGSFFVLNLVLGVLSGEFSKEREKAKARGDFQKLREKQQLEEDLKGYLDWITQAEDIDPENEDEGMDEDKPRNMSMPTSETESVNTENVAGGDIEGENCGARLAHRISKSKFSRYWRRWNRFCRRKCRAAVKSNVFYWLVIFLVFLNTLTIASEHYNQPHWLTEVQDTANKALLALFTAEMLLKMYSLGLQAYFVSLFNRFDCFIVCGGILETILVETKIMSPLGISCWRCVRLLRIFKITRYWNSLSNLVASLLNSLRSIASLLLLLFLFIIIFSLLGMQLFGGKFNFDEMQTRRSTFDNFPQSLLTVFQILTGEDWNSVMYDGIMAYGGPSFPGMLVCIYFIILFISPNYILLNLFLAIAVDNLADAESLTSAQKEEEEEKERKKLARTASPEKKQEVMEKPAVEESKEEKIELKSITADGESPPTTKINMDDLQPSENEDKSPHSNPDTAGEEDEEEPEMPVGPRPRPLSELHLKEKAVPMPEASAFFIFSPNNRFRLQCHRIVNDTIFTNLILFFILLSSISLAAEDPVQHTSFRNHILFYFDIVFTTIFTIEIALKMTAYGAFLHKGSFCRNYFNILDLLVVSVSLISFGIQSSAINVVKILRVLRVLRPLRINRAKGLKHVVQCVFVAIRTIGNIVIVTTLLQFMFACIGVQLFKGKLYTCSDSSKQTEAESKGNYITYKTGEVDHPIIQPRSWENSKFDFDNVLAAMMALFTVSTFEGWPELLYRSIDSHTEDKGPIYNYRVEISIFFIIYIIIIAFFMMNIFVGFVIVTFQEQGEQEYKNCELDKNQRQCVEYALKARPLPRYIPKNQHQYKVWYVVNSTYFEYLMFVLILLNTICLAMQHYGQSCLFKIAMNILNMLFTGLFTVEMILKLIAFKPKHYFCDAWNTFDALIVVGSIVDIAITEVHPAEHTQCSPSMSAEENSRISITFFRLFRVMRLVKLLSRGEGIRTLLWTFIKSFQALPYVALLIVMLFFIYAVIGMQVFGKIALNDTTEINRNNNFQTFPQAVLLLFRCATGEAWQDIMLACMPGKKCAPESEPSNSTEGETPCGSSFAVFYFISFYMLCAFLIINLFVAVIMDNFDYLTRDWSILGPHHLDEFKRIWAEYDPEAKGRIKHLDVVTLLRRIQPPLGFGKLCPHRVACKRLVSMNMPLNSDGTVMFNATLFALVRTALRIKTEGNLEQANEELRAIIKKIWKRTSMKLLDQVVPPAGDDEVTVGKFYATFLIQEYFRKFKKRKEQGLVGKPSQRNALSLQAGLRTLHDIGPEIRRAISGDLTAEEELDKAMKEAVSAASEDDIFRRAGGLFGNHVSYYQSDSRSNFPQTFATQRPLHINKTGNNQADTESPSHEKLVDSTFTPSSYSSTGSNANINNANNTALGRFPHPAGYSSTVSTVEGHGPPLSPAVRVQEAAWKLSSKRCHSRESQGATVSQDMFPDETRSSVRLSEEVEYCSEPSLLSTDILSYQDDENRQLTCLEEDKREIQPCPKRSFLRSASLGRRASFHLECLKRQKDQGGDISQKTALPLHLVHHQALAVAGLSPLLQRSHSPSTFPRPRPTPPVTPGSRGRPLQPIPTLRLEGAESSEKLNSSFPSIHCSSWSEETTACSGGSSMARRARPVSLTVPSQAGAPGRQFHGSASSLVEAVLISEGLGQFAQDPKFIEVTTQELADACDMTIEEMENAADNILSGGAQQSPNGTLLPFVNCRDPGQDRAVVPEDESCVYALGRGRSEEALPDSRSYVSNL
Format: functional
Endpoint: AC50

For CSCC[C@H](NC(=O)[C@H](Cc1c[nH]c2ccccc12)NC(=O)CCNC(=O)OC(C)(C)C)C(=O)N[C@@H](CC(=O)O)C(=O)N[C@@H](Cc1ccccc1)C(N)=O , what is its reported AC50? > 10 µM

For C=CCNc1nc(NCC=C)nc(N2CCN(C(c3ccc(F)cc3)c3ccc(F)cc3)CC2)n1 , what is its reported AC50? > 30 µM

For CN(C)CC[C@@H](c1ccc(Cl)cc1)c1ccccn1 , what is its reported AC50? > 30 µM

For O=C1C(CC[S+]([O-])c2ccccc2)C(=O)N(c2ccccc2)N1c1ccccc1 (stereo not given) , what is its reported AC50? > 10 µM

For CC(C(=O)O)c1ccc(CC2CCCC2=O)cc1 (stereo not given) , what is its reported AC50? > 30 µM

For CCCCC1C(=O)N(c2ccccc2)N(c2ccccc2)C1=O , what is its reported AC50? > 10 µM

For CCCN[C@H]1CCc2nc(N)sc2C1 [PRAMIPEXOLE] , what is its reported AC50? > 10 µM

For CCC(=O)O[C@]1(C(=O)SCF)[C@H](C)C[C@H]2[C@@H]3C[C@H](F)C4=CC(=O)C=C[C@]4(C)[C@@]3(F)[C@@H](O)C[C@@]21C [FLUTICASONE PROPIONATE] , what is its reported AC50? > 30 µM

For CCCCCCCCCCCCCCCCCCCCCC(=O)Nc1ccn([C@@H]2O[C@H](CO)[C@@H](O)[C@@H]2O)c(=O)n1 , what is its reported AC50? > 30 µM

For CC1(C)S[C@@H]2[C@H](NC(=O)[C@H](N)c3ccccc3)C(=O)N2[C@H]1C(=O)OCOC(=O)[C@@H]1N2C(=O)C[C@H]2S(=O)(=O)C1(C)C , what is its reported AC50? > 30 µM

For COc1cc(N)c(Cl)cc1C(=O)NC1CCN(Cc2ccccc2)CC1 [CLEBOPRIDE] , what is its reported AC50? > 30 µM

For CC(C)NCC(O)c1ccc(O)c(O)c1 (stereo not given) , what is its reported AC50? > 10 µM

For CCCN(CCC)C(=O)Cc1c(-c2ccc(Cl)cc2)nc2ccc(Cl)cn12 , what is its reported AC50? > 30 µM

For CO[C@H]1/C=C/O[C@@]2(C)Oc3c(C)c(O)c4c(O)c(c(/C=N/N5CCN(C)CC5)c(O)c4c3C2=O)NC(=O)/C(C)=C\C=C\[C@H](C)[C@H](O)[C@@H](C)[C@@H](O)[C@@H](C)[C@H](OC(C)=O)[C@@H]1C , what is its reported AC50? > 30 µM

For CN(C)CCc1c[nH]c2ccc(Cn3cncn3)cc12 , what is its reported AC50? > 10 µM

The origin of these recorded values is ChEMBL document CHEMBL5291721.
